Provenance of the data: PubChem BioAssay (NCI)

Assay: NCI Yeast Anticancer Drug Screen. Data for the bub3 strain (AID 167)
Conditions: S. cerevisiae bub3 mutant strain, at 50.0 µM, hits give high values
Compounds without any hit were thinned out: in the full panel of roughly 79,000, 15% have a hit.
attribute measured: growth inhibition (%)
Write the value in % as a bare number.

## Input So what's the measured growth inhibition for this one? O=P(c1ccccc1)(c1ccccc1)N1CC1c1ccccc1 (configuration not stated)
## Output 4.6

## Input Need growth inhibition, item O=C(Oc1ccccc1[N+](=O)[O-])Oc1ccccc1[N+](=O)[O-]
## Output 16.2

## Input Consider the compound shown here: COc1nc2c(nc(N)n2C2OC(CO)C(O)C(O)C2O)c(=O)[nH]1 (configuration not stated) What is its recorded growth inhibition?
## Output 0.95

## Input Fill blank: measured growth inhibition of the compound N=C1N=C(N)c2cc3c(cc21)SCCSCCCSCCS3 is ____.
## Output 4.2

## Input Fill in the blank: the reported growth inhibition of O=C1OC(c2ccccc2)=N/C1=C\c1ccc(F)cc1 is ____.
## Output -19.3

## Input I'd like to know its growth inhibition. The compound in question is Nc1ccccc1N
## Output -29.9

## Input Given the compound CC12CCC(CC1)C(C)(C)N=C(N)S2 , what is its reported growth inhibition?
## Output -11.2

## Input Form field: reported growth inhibition of COc1ccc(C(=O)OCc2ccccc2CN2CCCCC2)cc1
## Output -14.2

## Input Reported growth inhibition for CCOC1CSc2ccccc2C(c2ccccc2)=N1 (configuration not stated) : what is it?
## Output 14.7

## Input Reported growth inhibition, compound O=C(CCc1cc(O)cc(O)c1)NCCc1cc(OCc2ccccc2)cc(OCc2ccccc2)c1 : ____
## Output 27.1

## Input // returns reported growth inhibition for input CCC1(C)NC(=O)OC1=O (configuration not stated)
## Output 20.5

## Input Can you share its growth inhibition? I mean this compound: CN(C)c1c2c(oc(=O)c1Cl)-c1ccccc1OCC2
## Output -19.1

###

Assay: NCI Yeast Anticancer Drug Screen. Data for the mec2-1 strain (AID 157)
Conditions: S. cerevisiae mec2-1 strain, at 50.0 µM, hits give high values
This is part of a sample that, as a whole, favours compounds with a hit. Of some 79,000 tested, about 15% had one in any assay. Where a SMILES comes first, the peptide text is derived from it. The star is where a group is joined. Boc = CC(C)(C)OC(=O)*
Kindly supply the reported growth inhibition values for the records listed here.
State the answer as a number, implicitly in %.

## Input Recorded growth inhibition of c1csc(-c2cc(-c3cccs3)c(-c3ccsc3)s2)c1 , please.
## Output -43.4

## Input So what does the record say about growth inhibition for COC(=O)[C@]1(C)CCC[C@]2(C)C3=C[C@@H](O)[C@@]4(C(C)C)O[C@H]4[C@]3(O)CC[C@@H]12 ?
## Output -29.3

## Input Consider the compound shown here: CN(C)C(=S)/N=c1\ssc(=S)n1Cc1cccs1 What is its recorded growth inhibition?
## Output -19.5

## Input Request the reported growth inhibition associated with CC1=CCC(C(C)(C)NC(=O)c2ccccc2)C/C1=N/O (stereo unspecified)
## Output -43

## Input What growth inhibition value was documented for this compound, Nc1cccc(N)n1 ?
## Output -12.2

## Input Returns the measured growth inhibition for the input compound. Input: CC(=O)NCc1cc(C)c(CBr)cc1CBr
## Output -10.8

## Input Entry under review: CC(C)(C)OC(=O)NC(Cc1ccc(O)cc1)C(=O)N1CCCC1C(=O)O (stereo not drawn) (Boc-Tyr-Pro-OH; configuration not given here) . Reported growth inhibition?
## Output -11.3

## Input # growth inhibition lookup, item CCOc1ccc(CCC(=O)O)cc1
## Output -9

## Input Entry under review: O=C(O)/C(Cl)=C(\Cl)C(=O)NC1C2CC3CC(C2)CC1C3 (stereo unspecified) . Reported growth inhibition?
## Output 10.3

## Input // returns reported growth inhibition for input CC1=NN(c2cc(S(=O)(=O)O)ccc2Cl)C(=O)C1N=Nc1ccccc1 (stereo unspecified)
## Output -26.2

## Input Data request, read-out growth inhibition, for CC(C)=CCC/C(C)=C\COC=O
## Output 12.4

###

Test: NCI Yeast Anticancer Drug Screen. Data for the bub3 strain (AID 167)
Conditions: S. cerevisiae bub3 mutant strain, at 50.0 µM, hits give high values
The panel holds about 79,000 compounds, 15% with a hit somewhere; the sample as a whole holds those more often.
Can you tell me growth inhibition for the items I'm about to list?
Write the value in % as a bare number.

## Input Given the entry CCOC(=O)C(c1ccc(C)cc1)C(Cl)(Cl)Cl (configuration not stated) , report its measured growth inhibition.
## Output -11.5

## Input Which measured growth inhibition value corresponds to CC(C)c1ccc(O)c(C(C)(C)C)c1 ?
## Output -32.5

## Input Which measured growth inhibition value corresponds to COc1cc2c(cc1OC)-c1ccc3cc4c(cc3c1N(C)C2)OCO4 ?
## Output -12.7

## Input Request the reported growth inhibition associated with Cc1ccc([N+](=O)[O-])c(N)c1
## Output 4.65

## Input Consider the molecule S=C(Nc1ccc(I)cc1)SCc1ccc2c(c1)OCO2 and give its measured growth inhibition.
## Output -3.65

## Input What measured growth inhibition goes with OCC(O)C1OC2CC1Nc1ccccc1N2 (configuration not stated) ?
## Output -15.1

## Input Dear colleague, I am looking for the recorded growth inhibition of the following molecule: CCOC(=O)c1c(C)csc1NC(=O)CSCC(=O)OC
## Output 41

## Input # get_value(readout='growth inhibition', item= Cc1cc(C(=O)O)c2c([nH]1)c(C)cc1nc3ccccc3c12 )
## Output 4.95

## Input Reported growth inhibition, molecule COC(=O)C1(CC(=O)Cc2ccccc2)NC(=S)NC(=O)C1C#N (configuration not stated) : ____
## Output -29.1

## Input # lookup: growth inhibition of O=C(O)c1ccc2ccc(F)cc2c1Cc1ccccc1
## Output -1.4

## Input Which growth inhibition is listed for CCC(C(=O)c1ccccc1)C1(C(=O)OC)NC(=S)NC(=O)C1C#N (configuration not stated) ?
## Output -8.05

## Input Fill in: growth inhibition of COc1ccc(Nc2nc3cc(C(F)(F)F)ccc3nc2-c2ccccc2)cc1OC is ___
## Output -12.4

###

So I've got a bunch of molecules here, and I need their growth inhibition values.
Assay: NCI Yeast Anticancer Drug Screen. Data for the mlh1 rad18 strain (AID 175)
Conditions: S. cerevisiae mlh1 rad18 strain growth inhibition; at 50.0 µM; hits give high values
About 79,000 compounds went through this panel and 15% of them were active in at least one assay; those are over-represented in the sample as a whole.
Write it as a number; the unit % goes unstated.

## Input Data request, read-out growth inhibition, for Cc1cc(-c2ccccc2)c(C#N)c(=O)[nH]1
## Output -7.35

## Input Data request, read-out growth inhibition, for Cc1nc2ccccn2c1N=Nc1ccc(C(=O)NN)cc1
## Output -18.4

## Input Dear colleague, I am looking for the recorded growth inhibition of the following molecule: CCCCc1c(O)c2c(=O)n(C)c(=O)n3c4ccccc4n(c1=O)c23
## Output 10.8

## Input Fill in the blank: the reported growth inhibition of COc1ccc(N=C(C)C2C(=O)c3ccccc3C2=O)cc1 is ____.
## Output -30.7

## Input Item CCN(CC)CCN1C(=O)NC2(CCCCC2)C1=O has what recorded growth inhibition?
## Output 20.8

## Input Look up growth inhibition for this molecule: COCc1c(C)[nH]c2ccc(N(C)C)cc2c1=O
## Output -6.55

## Input Value lookup for growth inhibition; key = O=C1CC(c2ccccc2)C(c2ccccc2)C1C(=O)OCCc1ccccc1 (centres undefined)
## Output 1.3

## Input Tell me the measured growth inhibition of CC1=CC2N(C=C1)C(c1cccc([N+](=O)[O-])c1)=NON2c1cc(C)ccn1 (centres undefined) , please.
## Output 23.9

## Input GET /values?readout=growth inhibition&item= NC(=O)CCC(NS(=O)(=O)c1ccc(NC(=O)c2ccccc2)cc1)C(=O)O (centres undefined)
## Output -1.95

## Input Please report the recorded growth inhibition for COc1cc(COC(=O)Nc2ccccc2F)cc(OC)c1OC .
## Output -10

## Input // query growth inhibition value for entry O=C(CN1CCCC1=O)CS(=O)(=O)c1ccccc1
## Output 2.3

## Input Fill in: growth inhibition of C[n+]1c2ccccc2c(CNC(CCC(N)=O)C(=O)O)c2ccccc21 (centres undefined) is ___
## Output 87.8

## Input I am curious: what growth inhibition value has been reported for CC(CC(C(=O)Nc1ccccc1)(c1ccccc1)c1ccccc1)N(C)C (centres undefined) ?
## Output 6.2

## Input # growth inhibition lookup, item O=C(c1cc(O)c(O)c(O)c1)c1ccc(O)c(O)c1O
## Output 32.8

## Input Fill in the blank: the reported growth inhibition of c1ccc(-c2nc3ccccc3nc2-c2ccc(Cc3ccc(-c4nc5ccccc5nc4-c4ccccc4)cc3)cc2)cc1 is ____.
## Output 25.1

## Input Entry under review: O=C(NN=C1CCCCC1)c1ccccc1 . Reported growth inhibition?
## Output 0.2

## Input Give the measured growth inhibition of O=C(c1cccc(C(=O)N(c2ccccc2)c2ccccc2)n1)N(c1ccccc1)c1ccccc1 .
## Output -1.8

## Input Any idea what its growth inhibition is? The molecule is CC(=O)C(C)c1nc(=S)[nH]c(=S)[nH]1 (centres undefined)
## Output 4.85

## Input Using the record for CC1=C(C(=O)O)CCCO1 , report its growth inhibition.
## Output 25.7

## Input If you can, please state the reported growth inhibition value of COc1ccc2cc(CC(=O)c3ccccc3)ccc2c1 .
## Output -3.5

## Input Entry under review: CCN(CC)CCN1C(=O)C(=O)N(c2cccc3ccccc23)C1=O . Reported growth inhibition?
## Output -10.2

## Input Need growth inhibition of O=C(O)[Si](c1ccccc1)(c1ccccc1)c1ccccc1 , thanks.
## Output 48.1

## Input // returns reported growth inhibition for input O=C(O)c1ccccc1C(=O)OCc1ccccc1
## Output 11.9

## Input Give the measured growth inhibition of Cc1csc(-n2nc(C)cc2C)n1 .
## Output -6.05
